test system: UniProt:O43613
assay details: Orexin receptor cell-based functional assay, [Ca2+]i by FLIPR, CHO-OX1 cells
cond: FLIPR calcium, antagonism of EC90 of [OX], read-out: OXI, IC50
Threshold 6 nM: IC50 strictly smaller gives satisfied, otherwise not satisfied.

| molecule | cat |
| --- | --- |
| Cc1ccc(-c2ncccn2)c(C(=O)N2CC(F)(F)C[C@@H](C)[C@H]2CNc2ccc(C(F)(F)F)cn2)n1 [Compound 183] | not satisfied |
| Cc1ccc(-c2ccccc2)c(C(=O)N2CC(F)(F)C[C@@H](C)[C@H]2CNc2ncc(C(F)(F)F)cn2)n1 [Compound 51] | satisfied |
| COc1ccc(-c2cn(C)nc2C(=O)N2CC(F)(F)C[C@@H](C)[C@H]2CNc2cnc(C(F)(F)F)cn2)nc1 [Compound 135] | not satisfied |
| C[C@@H]1CC(F)(F)CN(C(=O)c2nn(C)cc2-c2ncccn2)[C@@H]1CNc1ncc(C(F)(F)F)cc1F [Compound 228] | not satisfied |

QUERY: Check if IC50 falls below 6 nM for C[C@@H]1CC(F)(F)CN(C(=O)c2cn(C)nc2-c2ccccc2)[C@@H]1COc1ncc(C(F)(F)F)cn1 [Compound 209] .
RESULT: not satisfied

QUERY: Just wondering, is IC50 of Cc1nc(C(=O)N2CC(F)(F)C[C@@H](C)[C@H]2CNc2cnc(C(F)(F)F)cn2)c(-c2ccc(F)cc2)s1 [Compound 137] below 6 nM?
RESULT: satisfied

QUERY: # TODO verify IC50 < 6 nM strictly for this molecule: C[C@@H]1CC(F)(F)CN(C(=O)c2nn(C)cc2-c2ccc(F)cc2)[C@@H]1CNc1ncc(Cl)cn1 [Compound 31]
RESULT: satisfied

QUERY: Below 6 nM on IC50? Entry C[C@@H]1CC(F)(F)CN(C(=O)c2cc(Cl)ccc2-c2nnn(C)n2)[C@@H]1COc1ccc(C(F)(F)F)cn1 [Compound 216]
RESULT: satisfied

QUERY: Consider the molecule Cc1nc(C(=O)N2CC(F)(F)C[C@@H](C)[C@H]2CNc2ncc(C(F)(F)F)cn2)c(-c2ncccc2C)s1 [Compound 75] . Is its IC50 strictly less than 6 nM?
RESULT: not satisfied

###

test system: OX1 (Homo sapiens, UniProt O43613)
Sequence (O43613 whole entry): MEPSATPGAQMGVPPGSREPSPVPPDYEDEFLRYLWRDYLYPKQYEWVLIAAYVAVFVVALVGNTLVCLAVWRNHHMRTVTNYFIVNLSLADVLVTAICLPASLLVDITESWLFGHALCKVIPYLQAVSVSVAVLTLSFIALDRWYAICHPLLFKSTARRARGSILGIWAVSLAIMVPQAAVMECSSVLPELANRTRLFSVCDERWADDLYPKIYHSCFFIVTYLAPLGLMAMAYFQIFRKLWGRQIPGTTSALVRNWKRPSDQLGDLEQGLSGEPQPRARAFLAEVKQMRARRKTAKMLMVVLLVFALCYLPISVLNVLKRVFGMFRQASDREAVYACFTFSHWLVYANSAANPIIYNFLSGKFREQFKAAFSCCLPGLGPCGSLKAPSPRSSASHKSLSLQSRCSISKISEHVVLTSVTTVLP
assay details: Orexin receptor cell-based functional assay, [Ca2+]i by FLIPR, CHO-OX1 cells
cond: FLIPR calcium, antagonism of EC90 of [OX], read-out: OXI, IC50
Entry class follows IC50: category 1 = under 5 nM, category 2 = from 5 nM up to 50 nM, category 3 = 50 nM and over

Reference set (3 entries):
| compound | test system | cat |
| --- | --- | --- |
| Cc1nc(-c2ccccc2)c(C(=O)N2CC(F)(F)C[C@@H](C)[C@H]2CNc2ncc(C(F)(F)F)cn2)s1 [Compound 48] | OX1 (Homo sapiens, UniProt O43613) | category 3 |
| C[C@@H]1CC(F)(F)CN(C(=O)c2nn(C)nc2-c2ccc(Cl)cn2)[C@@H]1CNc1ncc(C(F)(F)F)cn1 [Compound 249] | OX1 (Homo sapiens, UniProt O43613) | category 2 |
| C[C@@H]1CC(F)(F)CN(C(=O)c2nn(C)cc2-c2cnccn2)[C@@H]1CNc1ncc(C(F)(F)F)cn1 [Compound 224] | OX1 (Homo sapiens, UniProt O43613) | category 3 |

QUERY: Any idea which band C[C@@H]1CC(F)(F)CN(C(=O)c2cc(C#N)ccc2-c2ccc(F)cc2)[C@@H]1CNc1ncc(Cl)cn1 [Compound 53] is in?
RESULT: category 2

QUERY: Pick a category. Item: Cc1nc(C(=O)N2CC(F)(F)C[C@@H](C)[C@H]2CNc2ncc(C(F)(F)F)cn2)c(-c2ccccc2)s1 [Compound 65]
RESULT: category 1

QUERY: Form field 'band' for CC(C)n1cc(-c2ncccn2)c(C(=O)N2CC(F)(F)C[C@@H](C)[C@H]2CNc2ncc(C(F)(F)F)cn2)n1 [Compound 237]
RESULT: category 3

QUERY: Please classify: CCc1cnc(NC[C@@H]2[C@H](C)CC(F)(F)CN2C(=O)c2nn(C)cc2-c2ccc(F)cn2)nc1 [Compound 41]
RESULT: category 3

QUERY: GET /class?item= C[C@@H]1CC(F)(F)CN(C(=O)c2cc(Cl)ccc2-n2ncnn2)[C@@H]1CNc1ncc(C(F)(F)F)cn1 [Compound 4]
RESULT: category 3

QUERY: Hey, which category is Cc1c(-c2ncccn2)c(C(=O)N2CC(F)(F)C[C@@H](C)[C@H]2CNc2ncc(C(F)(F)F)cn2)nn1C [Compound 233] in, do you know?
RESULT: category 1

QUERY: Lab note: which band did C[C@@H]1CC(F)(F)CN(C(=O)c2cn(C)nc2-c2ccccc2)[C@@H]1CNc1ncc(Cl)cn1 [Compound 254] land in?
RESULT: category 3

QUERY: Band for C[C@@H]1CC(F)(F)CN(C(=O)c2nn(C)cc2-c2ccc(Cl)cc2)[C@@H]1CNc1cnc(C(F)(F)F)cn1 [Compound 129] ?
RESULT: category 1

QUERY: For the record Cc1c(-c2ncc(F)cn2)c(C(=O)N2CC(F)(F)C[C@@H](C)[C@H]2CNc2ncc(C(F)(F)F)cn2)nn1C [Compound 264] , report the class its IC50 corresponds to.
RESULT: category 1

QUERY: // bin(item) where item = COc1ccc(-c2cn(C)nc2C(=O)N2CC(F)(F)C[C@@H](C)[C@H]2CNc2ccc(C(F)(F)F)cn2)cc1 [Compound 177]
RESULT: category 2

QUERY: Note: place this compound into its band. Item: COc1cccc(-c2sc(C)nc2C(=O)N2CC(F)(F)C[C@@H](C)[C@H]2CNc2cnc(C(F)(F)F)cn2)c1 [Compound 142]
RESULT: category 1

QUERY: Please let me know in which category the item Cc1ccc(-c2sc(C)nc2C(=O)N2CC(F)(F)C[C@@H](C)[C@H]2CNc2ccc(C(F)(F)F)cn2)cc1 [Compound 186] belongs.
RESULT: category 2

QUERY: State the band of Cc1cc(C(=O)N2CC(F)(F)C[C@@H](C)[C@H]2CNc2ncc(Cl)cn2)c(-c2ccccn2)s1 [Compound 92]
RESULT: category 2

QUERY: Band for C[C@@H]1CC(F)(F)CN(C(=O)c2cc(C#N)ccc2-n2nccn2)[C@@H]1CNc1ncc(Cl)cn1 [Compound 15] ?
RESULT: category 2

QUERY: Returns: class label. Input: Cc1ccc(-c2ccccn2)c(C(=O)N2CC(F)(F)C[C@@H](C)[C@H]2CNc2ncc(C(F)(F)F)cn2)n1 [Compound 16]
RESULT: category 3

QUERY: Please classify: C[C@@H]1CC(F)(F)CN(C(=O)c2nn(C)cc2-c2ccccc2)[C@@H]1CNc1ncc(C(F)(F)F)cn1 [Compound 21]
RESULT: category 1

QUERY: Which IC50 category applies to Cc1nc(C(=O)N2CC(F)(F)C[C@@H](C)[C@H]2CNc2ncc(C(F)(F)F)cn2)c(-c2ccc(F)cn2)s1 [Compound 72] here?
RESULT: category 3
